Cited source for all entries: PubChem BioAssay (NCI)

# System: SNB-75 CNS
# protocol_summary: NCI tumour cell line growth inhibition, 48 h
measured_metric: TGI (µM)

| molecule | result_comparator | reported_result |
| --- | --- | --- |
| CCOC(=O)c1c[nH]c(C(=O)C=[N+]=[N-])c1C1CCN(CC)C1=S (stereo not given) | > | 100 |
| O=c1[nH][nH]c(=O)c2c1ccc1oc3ccccc3c12 | > | 100 |
| CC(Oc1ccccc1Cl)C(=O)NN1C(=O)CC(=O)N(c2ccc(Cl)cc2)C1=S (stereo not given) | > | 100 |
| CN=c1sc2nc(C#N)c(C#N)nc2n1C | = | 51.4 |
| CCCCOC/N=C(/N)NC#N | > | 100 |
| COc1cc(-c2nn(-c3cccc(NC(=O)CCN4CCN(c5ccccc5)CC4)c3)cc2-c2ccncc2)ccc1Cl | > | 100 |
| C=C1C[C@@H]2O[C@H]3[C@H]4[C@@H](CC[C@@](C)(OC(=O)CCC)[C@H]42)[C@@H](C)C(=O)O[C@@]3(C)CC[C@H]1OO | = | 44.6 |
| Oc1ccccc1C=Nc1ccc(-c2nc3ccccc3s2)cc1 | = | 99.3 |
| O=c1c(Sc2c(SCSc3cnc4ccccc4c3Sc3c[nH]c4ccccc4c3=O)cnc3ccccc23)c[nH]c2ccccc12 | > | 100 |
| CC(=O)/C(=C\I)c1ccccc1 | = | 20.3 |
